# System: SK-MEL-5 melanoma
# Assay explanation: NCI tumour cell line growth inhibition, 48 h
Each entry below carries its reported TGI.
Measured endpoint: TGI (µM)

>>> numeric_value("CCc1c(C)[nH]c(/C=C2\\N=C(c3ccc[nH]3)C=C2OC)c1C")
0.545
>>> numeric_value("c1ccc(Nc2nnc(CSc3nc(-c4ccccc4)c(-c4ccccc4)[nH]3)s2)cc1")
28.5
>>> numeric_value("N=C(N)c1nn(C2OC(CO)C(O)C2O)c2nc[nH]c(=O)c12 (stereo not given)")
1.53
>>> numeric_value("Cc1ccc2[nH]c(C(=O)NN3C(=O)CSC34CCCCC4C)c(-c3ccccc3)c2c1 (stereo not given)")
31.3

* * *

# GI50 annotations
# Tested on: OVCAR-8 ovarian
# Assay explanation: NCI tumour cell line growth inhibition, 48 h
Measured endpoint: GI50

>>> result("COc1cc2cc(C(=O)N3CC(CCl)c4c3cc(NC(=O)C(C)(C)c3ccccc3[N+](=O)[O-])c3ccccc43)[nH]c2c(OC)c1OC (centres undefined)")
"6.58 µM"
>>> result("c1ccc2nc(Cn3c[n+](Cc4ccc5ccccc5n4)c4ccccc43)ccc2c1")
"3.13 µM"
>>> result("CCn1c(-c2nonc2N)nc2cncc(C(=O)N3CCNCC3)c21")
"> 25 µM"
>>> result("COc1ccc2c(c1)CCC1C2CCC2(C)C1CCC2(O)CNC(=O)CCCCC1CCSS1 (centres undefined)")
"11.7 µM"
>>> result("N#CSc1ncnc2nc[nH]c12")
"5.72 µM"
>>> result("O=C(CCl)c1ccc([N+](=O)[O-])o1")
"3.33 µM"
>>> result("Cc1ccc2[nH]c(C(=O)NN3C(=O)CSC34CCCCC4C)c(-c3ccccc3)c2c1 (centres undefined)")
"17.2 µM"
>>> result("CC[C@H](Nc1nc(N)nc(C)c1C#N)c1nc2cccc(CN(C)c3ncc(C(=O)NO)cn3)c2c(=O)n1-c1ccccc1")
"0.704 µM"
>>> result("c1ccc2[nH]c(-c3ccc(N4CCN(c5ccc(-c6nc7ccccc7[nH]6)cc5)CC4)cc3)nc2c1")
"> 100 µM"

* * *

# Tested on: UACC-62 melanoma
# Assay explanation: NCI tumour cell line growth inhibition, 48 h
Measured endpoint: TGI (µM)

>>> numeric_value("CC(C)(O)c1ccc(N2CCN(c3nnc(Cc4ccccc4)c4ccccc34)CC2)nc1")
21.9
>>> numeric_value("COc1cc2nc(Cl)nc(Nc3cccc(C(=O)/C=C/c4ccccc4)c3)c2cc1OC")
10.1
>>> numeric_value("COc1cc2cc(Oc3ccc(NC(=O)Nc4ccc(Cl)c(C(F)(F)F)c4)cc3)c(C)nc2cc1OCCN1CCCCC1")
3.08
>>> numeric_value("Cc1nn2c(=O)c([N+](=O)[O-])c(/C=C/c3ccccc3)nc2s1")
26.9

* * *

# Test system: A549 NSCLC
# Assay explanation: NCI tumour cell line growth inhibition, 48 h
Measured endpoint: TGI

>>> result("O=C(CCl)c1ccc([N+](=O)[O-])o1")
"54.4 µM"
>>> result("C=C1C(=O)C([Si](C)(C)C)=C2C=C(C)C3(CC3)C12C (stereo not given)")
"> 100 µM"
>>> result("Nc1ncnc2c1ccn2C1OC2COP(=O)(O)OC2C1O (stereo not given)")
"12.8 µM"
>>> result("CCOC(=O)c1c2c(n(CC(C)C)c1C)-c1nc[nH]c1C(=O)C2=O")
"28.1 µM"
>>> result("COc1ccc(/C=C2\\OC(=O)C(Cl)=C2c2ccc(OC)cc2)cc1")
"> 100 µM"
>>> result("COc1cc(Cn2cc3c(c2)-c2oncc2CC3)cc(OC)c1OC")
"> 100 µM"
>>> result("CC1Oc2cc3c(-c4c(O)cc(O)c5c(O)c6c(cc45)OC(C)C(C)C6=O)c(O)cc(O)c3c(O)c2C(=O)C1C (stereo not given)")
"1.29 µM"
>>> result("NS(=O)(=O)c1cc2c(cc1Cl)NC(C(=O)c1cc(=O)c3ccc(O)cc3o1)=NS2(=O)=O")
"> 100 µM"
>>> result("CC1(C)CCC2(C(=O)OC3OC(CO)C(O)C(O)C3O)CC[C@]3(C)C(=CCC4C5(C)CC[C@H](OC6OC(C(=O)O)C(O)C(O)C6O)C(C)(C)C5CCC43C)C2C1 (stereo not given in full)")
"20.2 µM"
>>> result("CC1(Sc2ccccc2)CN(Cc2ccccc2)C1=O (stereo not given)")
"> 100 µM"

* * *

# System: HS 578T breast
# Assay explanation: NCI tumour cell line growth inhibition, 48 h
Where a SMILES comes first, the peptide text is derived from it. The star is where a group is joined. Cbz = O=C(OCc1ccccc1)*; OBn = c1ccc(CO*)cc1
Measured endpoint: TGI

>>> result("COc1cccc(OC(=O)c2ccccc2Nc2ccnc(C(F)(F)F)c2)c1")
"> 100 µM"
>>> result("CC[C@](C)(O)C(=O)O[C@H]1C(=O)O[C@@H]2C[C@H]3C(C)=CC(=O)[C@@H](O)[C@]3(C)[C@H]3[C@@]4(O)OC[C@]32[C@@H]1[C@@H](C)[C@H]4O")
"4.44 µM"
>>> result("COc1cc2c(cc1OC)-c1ccc3cc4c(cc3c1N(CCN1CCCC1)C2)OCO4")
"14.7 µM"
>>> result("OCC1OC(n2ccc3c2ncn2ncnc32)C(O)C1O (stereo not given)")
"85.9 µM"
>>> result("CCN(CC)CCOc1ccc(C(=C(C)c2ccc(Cl)cc2)c2ccc(OCCN(CC)CC)cc2)cc1")
"1.85 µM"
>>> result("CC(=O)OC1c2ccccc2CC2(OC(C)=O)c3ccccc3C12 (stereo not given)")
"> 100 µM"
>>> result("CN(C)c1ccc2nc3ccc(=[N+](C)C)cc-3oc2c1")
"64 µM"
>>> result("O=c1cc(CNc2cc(F)cc(F)c2)c2ccc(I)cc2[nH]1")
"> 100 µM"
>>> result("COc1cc2c(cc1OC)-c1[nH]c3ccc(C#N)cc3c1CC(=O)N2")
"> 100 µM"
>>> result("CSc1nc2ccccc2c(=O)n1/N=C1\\C(=O)N(CN2CCCCC2)c2ccc(Cl)cc21")
"> 100 µM"
>>> result("NC(=O)[C@H]1CCN(c2ncnc(N)c2F)C[C@@H]1N1CCC[C@@H](Nc2cc(Cl)cc(C(F)(F)F)c2)C1=O")
"> 100 µM"
>>> result("N#CC1(C#N)C2CCCCC23OC(=N)C1(C#N)C(c1ccco1)O3 (stereo not given)")
"70.4 µM"
>>> result("O=C1c2ccccc2C(=O)N1CC1(C(=O)O)NCCS1(=O)=O (stereo not given)")
"> 100 µM"
>>> result("Nc1ncnc2sc(=S)c3c(c12)CCC3")
"99.7 µM"
>>> result("C=C(C)[C@@H]1CC=C(CO)CC1")
"> 10 µM"
>>> result("O=C(O)CS(=O)(=O)C(c1ccccc1)c1ccccc1")
"> 100 µM"
>>> result("O=S1(=O)c2cnccc2NC(=NCc2cccc3ccccc23)N1c1ccccc1")
"> 100 µM"
>>> result("CCOC(=O)/C(C)=C\\[C@@]1(C)O[C@@H](C)[C@@](C)(OC(C)=O)[C@@H]1OC(C)=O")
"> 100 µM"
>>> result("Nc1ccn(C2CC(O)C(COP(O)(=S)OC3CC(n4ccc(N)nc4=O)OC3CO)O2)c(=O)n1 (stereo not given)")
"> 100 µM"
>>> result("Fc1ccc2[nH]cc(Cc3c[nH]c4ccc(F)cc34)c2c1")
"44.5 µM"
>>> result("CCOC(=O)c1ccc(C(=O)OCC)n1-c1cc2cc(c1)CSCc1cc(cc(-n3c(C(=O)OCC)ccc3C(=O)OCC)c1)CSC2")
"> 10 µM"
>>> result("COC(=O)CNC(=O)C(C)NC(=O)C(CC(=O)OCc1ccccc1)NC(=O)OCc1ccccc1 (stereo not drawn) (Cbz-Asp(OBn)-Ala-Gly-OMe; configuration not given here)")
"> 100 µM"
>>> result("COc1ccc(Cn2nc(-c3cc(OC)c(OC)c(OC)c3)c3c2CCc2cnoc2-3)cc1OC")
"15.2 µM"
>>> result("COc1ccc(C2c3cc4c(cc3C(O)C3CCC(=O)N23)OCO4)cc1 (stereo not given)")
"> 100 µM"
>>> result("CCn1c(-c2nonc2N)nc2cncc(C(=O)N3CCNCC3)c21")
"> 25 µM"

* * *

Listing of entries alongside the reported TGI.
# Test system: MDA-MB-435
# Assay explanation: NCI tumour cell line growth inhibition, 48 h
Measured endpoint: TGI (µM)

>>> numeric_value("CCCCc1ccc(Nc2nc(Cl)c3c(ncn3COCCOC(C)=O)n2)cc1")
32.9
>>> numeric_value("CC[C@H](Nc1nc(N)nc(C)c1C#N)c1nc2cccc(CN(C)c3ncc(C(=O)NO)cn3)c2c(=O)n1-c1ccccc1")
2.26
>>> numeric_value("Cc1ccc(NCC2CC/C(=C\\c3ccc(Cl)cc3)C2=O)cc1 (stereo not given)")
35.9

Measured values drawn from PubChem BioAssay (NCI) for this set.
